tgt: dipeptidyl peptidase IV (Homo sapiens, UniProt P27487)
Sequence (P27487 whole entry, species assumed): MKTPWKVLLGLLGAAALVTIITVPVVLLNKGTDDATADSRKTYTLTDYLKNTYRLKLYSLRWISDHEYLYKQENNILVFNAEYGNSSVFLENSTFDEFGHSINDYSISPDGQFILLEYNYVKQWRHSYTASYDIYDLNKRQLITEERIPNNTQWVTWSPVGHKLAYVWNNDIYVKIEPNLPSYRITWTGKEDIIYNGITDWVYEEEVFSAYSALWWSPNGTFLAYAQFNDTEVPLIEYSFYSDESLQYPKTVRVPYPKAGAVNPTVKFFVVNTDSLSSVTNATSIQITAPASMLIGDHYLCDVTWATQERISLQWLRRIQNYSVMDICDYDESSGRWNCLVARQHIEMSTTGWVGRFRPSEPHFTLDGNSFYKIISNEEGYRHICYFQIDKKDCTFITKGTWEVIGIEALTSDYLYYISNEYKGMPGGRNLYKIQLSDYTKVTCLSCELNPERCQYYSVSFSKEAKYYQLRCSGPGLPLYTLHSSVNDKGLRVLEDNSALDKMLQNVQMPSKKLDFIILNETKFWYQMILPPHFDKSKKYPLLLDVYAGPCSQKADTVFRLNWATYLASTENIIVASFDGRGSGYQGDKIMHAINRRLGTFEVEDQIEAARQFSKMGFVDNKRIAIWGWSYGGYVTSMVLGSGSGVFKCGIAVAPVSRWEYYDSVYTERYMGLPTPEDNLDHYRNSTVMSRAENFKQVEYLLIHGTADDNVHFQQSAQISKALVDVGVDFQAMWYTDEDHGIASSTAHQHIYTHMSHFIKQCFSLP
assayComment: biochemical
studyConditions: values marked with "*" are ID50 values; read-out: IC50DPIV, values marked with "*" = ID50
log10 IC50 listing for selected molecules.
experimentalReadout: log10 IC50 (log10 of the value in µM)

INSERT INTO assay_data (molecule, observedmeasurement) VALUES
  ('O=C(c1cc(C(=O)N2CCOCC2)cc([N+](=O)[O-])c1)N1CCOCC1 [D5.009]', 1.03),
  ('CCOc1cc(/C=N/NC(=O)c2ccccc2)ccc1O [D10.123]', 2.34),
  ('COc1ccc(N(C(C)C(=O)N/N=C/c2ccc(Cl)cc2Cl)S(C)(=O)=O)cc1 (stereo not shown) [D9.001]', 0.46),
  ('O=C(CCCCC(=O)N/N=C/c1ccc(OC(=O)c2cc([N+](=O)[O-])cc([N+](=O)[O-])c2)cc1)N/N=C/c1ccc(OC(=O)c2cc([N+](=O)[O-])cc([N+](=O)[O-])c2)cc1 [D10.001]', 0.00),
  ('Nc1nonc1-n1nnc(C(=O)N/N=C/c2ccccc2Br)c1-c1ccc([N+](=O)[O-])cc1 [D10.135]', 2.50),
  ('O=C(Cn1c2ccccc2c(=O)c2ccccc21)N/N=C/c1ccc(O)c(O)c1 [D10.092]', 1.80),
  ('Cn1c(=O)c2c(nc(NCC(O)CO)n2Cc2ccccc2Cl)n(C)c1=O (stereo not shown) [D12.040]', 1.92),
  ('Cc1ccc(N2C(=O)C3CC(c4ccccc4)=C4C5C=CC(C6C(=O)N(c7ccc(C)cc7C)C(=O)C56)C4C3C2=O)c(C)c1 (stereo not shown) [D3.119]', 2.72),
  ('COc1cc(OC)cc(N2C(=O)CSCC2=O)c1 [D4.005]', 0.58),
  ('O=C1c2sc3nnc(-c4ccccc4)c(=O)n3c2C(=O)N1c1ccccc1 [D3.114]', 2.52),
  ('O=C(Nc1cccc(/N=C/c2cc(/N=N\c3ccccc3Cl)ccc2O)c1)c1ccco1 [D11.001]', 0.40),
  ('O=C(N/N=C/c1cc(Br)ccc1OC(=O)c1ccc([N+](=O)[O-])cc1)/C(=C\c1ccc2c(c1)OCO2)NC(=O)c1ccccc1 [D10.133]', 2.43),
  ('CCN(CC)c1ccc(/C=C(/NC(=O)c2ccccc2)C(=O)N/N=C/c2ccc(-c3ccc([N+](=O)[O-])cc3)o2)cc1 [D10.138]', 2.62),
  ('COc1ccc2nc(NC(=O)COC(=O)CN3C(=O)c4ccccc4C3=O)sc2c1 [D3.103]', 2.35),
  ('CSc1nc2sc3c(c2c2nnc(SCc4cccc(OC(C)C)c4)n12)CC(C)(C)OC3 [D3.108]', 2.43),
  ('CCOC(=O)n1ccc(C(=O)Nc2ccccn2)n1 [D2.007]', 2.17),
  ('CC1=C(C(=O)Nc2ccccc2)C(c2ccccc2Cl)c2c(sc(C(=O)c3ccc(Cl)cc3)c2N)N1 (stereo not shown) [D3.093]', 2.05),
  ('Cc1ccc(C)c(NCC(=O)N/N=C\c2cc([N+](=O)[O-])ccc2N2CCOCC2)c1 [D10.125]', 2.37),
  ('CCn1c2ccccc2c2ccc(/C=N/NC(=O)c3ccc([N+](=O)[O-])cc3)cc21 [D7.001]', 2.22),
  ('COc1cc(/C=N/NC(=O)c2cc(O)c(O)c(O)c2)cc(Br)c1OCc1ccccc1Cl [D10.002]', 0.30),
  ('CN(Cc1ccccc1)c1ccc(N2C(=O)CCCC2=O)cc1[N+](=O)[O-] [D4.101]', 2.36),
  ('CCOC(=O)n1ccc(C(=O)Nc2cc(C)ccn2)n1 [D6.112]', 2.17),
  ('Nc1nc2ccc(S(=O)(=O)c3ccc4nc(N)sc4c3)cc2s1 [D3.118]', 2.62),
  ('CCCN(CCC)c1ccc(/C=N/NC(=O)COc2ccc(C)cc2[N+](=O)[O-])cc1 [D10.124]', 2.35),
  ('O=C(NNC(=O)c1ccc([N+](=O)[O-])cc1)c1ccc(N2C(=O)c3ccc(C(=O)NNC(=O)c4ccc([N+](=O)[O-])cc4)cc3C2=O)cc1 [D10.137]', 2.60),
  ('O=C(COc1ccccc1C(=O)N/N=C\c1ccc(O)c(O)c1)N/N=C/c1ccc(O)c(O)c1 [D10.113]', 2.10),
  ('O=C1CSCC(=O)N1c1ccc(F)cc1F [D4.100]', 2.33),
  ('Oc1ccc(-c2csc(Nc3ncccn3)n2)cc1O [D4.095]', 2.21);

----------
tgt: UniProtKB P27487
assayComment: biochemical
studyConditions: values without "*" = IC-50; read-out: IC50DPIV
pIC50: −log10 of the molar value.
experimentalReadout: pIC50

INSERT INTO measurements (compound, experimentalreadout, observedmeasurement) VALUES
  ('CCOC(=O)c1c(C)oc2c1c1c(c3ccccc32)OCN(C2CCS(=O)(=O)C2)C1 (centres unmarked) [D3.046]', 'pIC50', 4.47),
  ('O=C1CCCC(=O)N1c1ccc(NCCOCCO)c([N+](=O)[O-])c1 [D4.065]', 'pIC50', 4.26),
  ('CC(C)C1Cc2c(sc3nc(SCC(=O)c4ccccc4)n(Cc4ccccc4)c(=O)c23)CO1 (centres unmarked) [D3.067]', 'pIC50', 4.28),
  ('O=C1NCCCCC1Nc1ccc(N2C(=O)CCCC2=O)cc1[N+](=O)[O-] (centres unmarked) [D5.026]', 'pIC50', 4.47),
  ('Cc1ccc(Cn2cccc2/C=N/NC(=S)Nc2ccc(C)c(C)c2)cc1 [D6.078]', 'pIC50', 4.26),
  ('N#Cc1c(NC(=O)c2ccccc2)sc2c1CCCCC2 [D3.042]', 'pIC50', 4.48),
  ('O=C(COc1ccc2ccccc2c1)N/N=C/c1c(Br)cc(Br)c(O)c1Br [D10.095]', 'pIC50', 4.16),
  ('COc1ccc(/C=N/NC(=O)c2cc(O)c(O)c(O)c2)cc1COc1cc(C)c(Cl)c(C)c1 [D10.016]', 'pIC50', 4.91),
  ('Cc1[nH]c2ccccc2c1/C=N/OC(=O)C1CC1 [D11.008]', 'pIC50', 4.52),
  ('CCOc1ccc(/C=N/NC(=O)c2cc(-c3c(OC)ccc4ccccc34)n[nH]2)cc1 [D3.100]', 'pIC50', 4.25),
  ('NC(=O)C1CCN(c2ccc(N3C(=O)CCCC3=O)cc2[N+](=O)[O-])CC1 [D4.070]', 'pIC50', 4.24),
  ('Cc1cc2ccccc2n1CCNC(=O)c1cccs1 [D6.044]', 'pIC50', 4.54),
  ('C/C(=N\NC(=O)CSCc1ccccc1Br)c1ccc(I)cc1 [D10.022]', 'pIC50', 4.88),
  ('O=C(N/N=C/c1cccc(Oc2ccccc2)c1)c1cc(Br)cc(Br)c1O [D10.054]', 'pIC50', 4.48);
